Target: Kv7.2/7.3 heterotetramers (Homo sapiens, UniProt O43525+O43526)
Assay: Whole cell patch-clamp electrophysiology, transfected CHO cells, Kv7.2/7.3
OBSERVABLE: EC50

Prompt: Query EC50 for Nc1c(NC(=O)OC2CC2)ccc(NCc2ccc(C(F)(F)F)cc2)c1F [RL-56]
Completion: ~0.02 µM
